Data provenance is ChEMBL document CHEMBL1137353.

- test name: Dissociation constant, pKa of the compound
- Format: physicochemical
observable: pKa

| structure notation | assay value |
| --- | --- |
| O=c1c2sc(-c3ccc(Cl)cc3)cc2ncn1-c1ccc2sc(CN3CCCCC3)cc2c1 | 8.29 |
| O=c1c2sc(-c3ccc(Cl)cc3)cc2ncn1-c1ccc2sc(CN3CCC(c4ccccc4)CC3)cc2c1 | 7.91 |

###

- test name: Volume of distribution in rat at 3 mg/kg, iv and 10 mg/kg, po
- Assay type: ADME, organism-based
- measurement setup: in vivo, read-out: Vss
observable: Vd (L/kg)

Answered cases to consult:
| structure notation | result unit | Vd |
| --- | --- | --- |
| CN(C)CC1=Cc2ccc(-n3cnc4cc(-c5ccc(Cl)cc5)sc4c3=O)cc2CC1 | L/kg | 16 |
| O=c1c2sc(-c3ccc(Cl)cc3)cc2ncn1-c1ccc2sc(CN3CCC(c4ccccc4)CC3)cc2c1 | L/kg | 0.6 |

a = O=c1c2sc(-c3ccc(Cl)cc3)cc2ncn1-c1ccc2c(c1)CCC(CN1CCCC1)=C2
b = O=c1c2sc(-c3ccc(Cl)cc3)cc2ncn1-c1ccc2sc(CN3CC[C@@H](O)C3)cc2c1
Determine, for a and b , which has the greater value of Vd. # answer = label of selected item a
(a: 15.7 L/kg, b: 3.6 L/kg)

P = O=c1c2sc(-c3ccc(Cl)cc3)cc2ncn1-c1ccc2oc(CN3CCCC3)cc2c1
Q = CN1CCN(Cc2cc3cc(-n4cnc5cc(-c6ccc(Cl)cc6)sc5c4=O)ccc3s2)CC1
Determine, for P and Q , which has the greater value of Vd. # answer = label of selected item Q

###

- study target: Melanin-concentrating hormone receptor 1 (Homo sapiens)
- Sequence (Q99705 whole entry, the tested form may be a part): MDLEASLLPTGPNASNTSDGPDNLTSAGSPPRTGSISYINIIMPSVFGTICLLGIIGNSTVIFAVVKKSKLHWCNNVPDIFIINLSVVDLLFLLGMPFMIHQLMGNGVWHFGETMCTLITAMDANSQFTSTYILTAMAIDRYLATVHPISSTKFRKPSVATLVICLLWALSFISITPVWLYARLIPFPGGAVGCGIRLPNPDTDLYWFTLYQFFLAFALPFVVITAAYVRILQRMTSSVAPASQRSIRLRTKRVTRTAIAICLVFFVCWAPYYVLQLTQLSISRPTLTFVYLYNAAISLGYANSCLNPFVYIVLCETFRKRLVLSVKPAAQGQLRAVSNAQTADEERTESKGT
- test name: Antagonist activity against human MCH1 receptor stably-expressed in CHO cells by Gal4/Elk1-Luc reporter assay
pIC50: −log10 of the molar value.
observable: pIC50

| molecule | pIC50 |
| --- | --- |
| COC[C@H]1CCCN1Cc1cc2cc(-n3cnc4cc(-c5ccc(Cl)cc5)sc4c3=O)ccc2o1 | 8.02 |

1 = O=c1c2sc(-c3ccc(Cl)cc3)cc2ncn1-c1ccc2c(c1)CCC(CN1CCCC1)C2 (stereo not given)
2 = O=c1c2sc(-c3ccc(Cl)cc3)cc2ncn1-c1ccc2sc(CN3CC[C@@H](O)C3)cc2c1
3 = CN1CCN(Cc2cc3cc(-n4cnc5cc(-c6ccc(Cl)cc6)sc5c4=O)ccc3s2)CC1
4 = O=c1c2sc(-c3ccc(Cl)cc3)cc2ncn1-c1ccc2c(c1)CCC(CN1CCCCC1)=C2
5 = O=c1c2sc(-c3ccc(Cl)cc3)cc2ncn1-c1ccc2sc(CN3CCN(c4ccccc4)CC3)cc2c1
Ordering criterion: pIC50; begin with the maximum. Form entry: labels listed in requested order. 4, 1, 2, 3, 5

A = O=c1c2sc(-c3ccc(Cl)cc3)cc2ncn1-c1ccc2c(c1)CCC(CN1CCCC1)=C2
B = CN(C)CC1=Cc2ccc(-n3cnc4cc(-c5ccc(Cl)cc5)sc4c3=O)cc2CC1
C = O=C(NCCN1CCCC1)c1ccc2cc(-n3cnc4cc(-c5ccc(Cl)cc5)sc4c3=O)ccc2c1
Ordering criterion: pIC50; begin with the maximum. Form entry: labels listed in requested order. A, B, C

1 = O=c1c2sc(-c3ccc(Cl)cc3)cc2ncn1-c1ccc2sc(CN3CCCC3)cc2c1
2 = O=c1c2sc(-c3ccc(Cl)cc3)cc2ncn1-c1ccc2c(c1)CCC(CN1CCCCC1)C2 (stereo not given)
3 = O=c1c2sc(-c3ccc(Cl)cc3)cc2ncn1-c1ccc2sc(CN3CCOCC3)cc2c1
Ordering criterion: pIC50; begin with the maximum. Form entry: labels listed in requested order. 1, 2, 3
(1: 9.04, 2: 8.51, 3: 7.42)

I = O=c1c2sc(-c3ccc(Cl)cc3)cc2ncn1-c1ccc2sc(CN3CCCCC3)cc2c1
II = Cn1c(CN2CCCC2)cc2cc(-n3cnc4cc(-c5ccc(Cl)cc5)sc4c3=O)ccc21
Between item I and item II , which reported pIC50 is smaller? # answer = label of selected item I
(I: 8.70, II: 8.96)

P = CN(C)Cc1cc2cc(-n3cnc4cc(-c5ccc(Cl)cc5)sc4c3=O)ccc2s1
Q = O=C(NCCCN1CCCC1)c1ccc2cc(-n3cnc4cc(-c5ccc(Cl)cc5)sc4c3=O)ccc2c1
Between item P and item Q , which reported pIC50 is smaller? # answer = label of selected item Q
(Q: 5.85, P: 8.89)
